The measurements presented in this section are drawn from patent US5840684A.

System: Streptococcus pyogenes C203
Assay: broth micro-dilution MIC
Assay type: cell-based
REPORTED_METRIC: MIC

- CNC(CC(C)C)C(=O)NC1C(=O)NC(CC(N)=O)C(=O)NC2C(=O)NC3C(=O)NC(C(=O)NC(C(=O)O)c4cc(O)cc(O)c4-c4cc3ccc4O)C(OC3CC(C)(N)C(O)C(C)O3)c3ccc(c(Cl)c3)Oc3cc2cc(c3OC2OC(CO)C(O)C(O)C2OC2CC(C)(NCc3ccc(OC(C)=O)cc3)C(O)C(C)O2)Oc2ccc(cc2Cl)C1O (stereo not drawn) [Compound 138]: ≤ 0.06 µg/mL
- CNC(CC(C)C)C(=O)NC1C(=O)NC(CC(N)=O)C(=O)NC2C(=O)NC3C(=O)NC(C(=O)NC(C(=O)O)c4cc(O)cc(O)c4-c4cc3ccc4O)C(OC3CC(C)(N)C(O)C(C)O3)c3ccc(c(Cl)c3)Oc3cc2cc(c3OC2OC(CO)C(O)C(O)C2OC2CC(C)(NCc3c4ccccc4c(Cl)c4ccccc34)C(O)C(C)O2)Oc2ccc(cc2Cl)C1O (stereo not drawn) [Compound 18]: ≤ 0.06 µg/mL
- CNC(CC(C)C)C(=O)NC1C(=O)NC(CC(N)=O)C(=O)NC2C(=O)NC3C(=O)NC(C(=O)NC(C(=O)O)c4cc(O)cc(O)c4-c4cc3ccc4O)C(OC3CC(C)(N)C(O)C(C)O3)c3ccc(c(Cl)c3)Oc3cc2cc(c3OC2OC(CO)C(O)C(O)C2OC2CC(C)(NCc3ccc(-c4ccc(C)c(C)c4)cc3)C(O)C(C)O2)Oc2ccc(cc2Cl)C1O (stereo not drawn) [Compound 221]: ≤ 0.06 µg/mL
